Molecular target: T1, Cyno PD-L1-Fc (cynomolgus, UniProt G7PSE7 19-238)
T1 construct: also called cynomolgus PD-L1
T1 sequence (G7PSE7 entry or part of it limits assumed): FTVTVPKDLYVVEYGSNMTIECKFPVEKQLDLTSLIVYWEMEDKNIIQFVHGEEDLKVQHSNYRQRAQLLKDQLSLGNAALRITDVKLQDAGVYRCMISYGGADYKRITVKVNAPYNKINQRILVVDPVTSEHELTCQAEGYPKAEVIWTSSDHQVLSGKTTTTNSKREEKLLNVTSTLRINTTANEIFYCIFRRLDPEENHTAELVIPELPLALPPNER
Assay: ForteBio, IgG, avid
test readout: pKd
Answers are plain numbers, as −log10 of the molar value.

Consider the worked cases shown below.
BiPDL3-14 (antibody, V domains shown, IgG; also called ADI-37464; 37464) VH: QVQLQQWGAGLLKPSETLSLTCAVYGGSLSGYPWSWIRQPPGKGLEWIGETDVSGWTDYNPSLKSRVTISVDTSKNQFSLKLSSVTAADTAVYYCARDGRRMGTPSFDIWGQGTMVTVSS VL: DIQMTQSPSSVSASVGDRVTITCRASQGINSFLAWYQQKPGKAPKLLIYAASSLNSGVPSRFSGSGSGTDFTLTISSLQPEDFATYYCQKAVYFPPTFGGGTKVEIK: 9.43
BiPDL3-24 (antibody, V domains shown, IgG; also called ADI-37465; 37465) VH: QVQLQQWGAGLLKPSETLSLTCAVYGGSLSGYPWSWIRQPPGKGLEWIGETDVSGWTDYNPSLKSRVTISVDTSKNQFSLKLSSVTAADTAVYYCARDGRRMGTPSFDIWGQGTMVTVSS VL: DIQMTQSPSSVSASVGDRVTITCRASQGISNFLAWYQQKPGKAPKLLIYAASSLQSGVPSRFSGSGSGTDFTLTISSLQPEDFATYYCQKAVYFPPTFGGGTKVEIK: 9.40
BiPDL3-44 (antibody, V domains shown, IgG; also called ADI-37475; 37475) VH: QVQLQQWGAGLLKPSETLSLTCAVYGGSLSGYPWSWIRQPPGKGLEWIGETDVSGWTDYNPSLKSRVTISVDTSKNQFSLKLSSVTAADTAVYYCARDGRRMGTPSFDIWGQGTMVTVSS VL: DIQMTQSPSSVSASVGDRVTITCRASQGISTFLAWYQQKPGKAPKLLIYAASALHSGVPSRFSGSGSGTDFTLTISSLQPEDFATYYCQRAVYFPPTFGGGTKVEIK: 9.34

Now let's try a different one.
The binder BiPDL3-34 (antibody, V domains shown, IgG; also called ADI-37468; 37468) VH: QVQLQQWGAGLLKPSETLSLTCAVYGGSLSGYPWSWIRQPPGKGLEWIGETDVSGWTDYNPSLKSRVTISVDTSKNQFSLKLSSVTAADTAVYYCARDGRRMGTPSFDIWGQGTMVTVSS VL: DIQMTQSPSSVSASVGDRVTITCRASQDISSFLAWYQQKPGKAPKLLIYAASSLQDGVPSRFSGSGSGTDFTLTISSLQPEDFATYYCQKSVYFPPTFGGGTKVEIK showed pKd equal to 9.37
